# Tested on: MDA-MB-435
Choose the fitting class; nothing outside active, inactive is accepted.

1. OCC1CC[N-]CC1.OCC1CC[N-]CC1.[Cl][Pt+2]([Cl])([Cl])[Cl] :: inactive

Which outcome did this test record for the compound "Cc1cc(Br)c(NC(=O)c2c(-c3c(Cl)cccc3Cl)noc2C)c(Br)c1" ?
inactive

Which outcome did this test record for the compound "COc1cc(/C=C/c2cc(/C=C/c3ccc(O)c(OC)c3)n(C(=O)c3ccccc3Br)n2)ccc1O" ?
inactive

Which outcome did this test record for the compound "CC(=O)Oc1c(C(=O)[O-])cc(C(C)C)cc1C(C)C.CC(=O)Oc1c(C(=O)[O-])cc(C(C)C)cc1C(C)C.CC(=O)Oc1c(C(=O)[O-])cc(C(C)C)cc1C(C)C.CC(=O)Oc1c(C(=O)[O-])cc(C(C)C)cc1C(C)C.[Cu+2].[Cu+2]" ?
inactive

###

# System: HOP-62 NSCLC
# assay procedure: NCI tumour cell line growth inhibition, 48 h
Reported TGI values for a set of compounds

As a guide, the following entries are already answered.
1) COC(=O)C1CCC(=O)N1CN(C(C)=O)c1cccc(O)c1 (stereo unspecified) :: > 100 µM
2) CCN1CCC(O)(c2ccc([N+](=O)[O-])cc2)C(C(=O)c2ccc([N+](=O)[O-])cc2)C1 (stereo unspecified) :: > 100 µM
3) COC(=O)C1=C(C(=O)OC)C2(c3ccccc3)OC1(c1ccccc1)c1cc3ccccc3cc12 :: 27.1 µM
4) Cc1nc2c(sc3nc4c(cc32)CCC4)c(=O)o1 :: > 100 µM
5) O=C(c1ccccc1)[C@H]1Nc2ccc(Cl)cc2[C@H]2CCC[C@@H]12 :: > 100 µM
6) COC(=O)[C@@H]1[C@@H]2NC(=S)N[C@@]1(C)Oc1ccccc12 :: > 100 µM

Output measured TGI for this item: "Cn1c(CNc2ccc(-c3n[nH]c(=S)n3C)cc2)n[nH]c1=S"
> 100 µM

Output measured TGI for this item: "COC(=O)c1c(C)cccc1/C=C1\Cc2ccc(C)c(C)c2C1=O"
> 100 µM

Output measured TGI for this item: "CCO/C=C1\SC(=S)N(c2ccc(OCC)cc2)C1=O"
> 100 µM

Output measured TGI for this item: CCCCCC(=O)O[C@]1(C(C)=O)CCC2C3CCC4=CC(=O)CC[C@]4(C)C3CC[C@@]21C (stereo partly specified)
10.9 µM

Output measured TGI for this item: "COc1ccc2c(C(=O)O)cc3ccccc3c2c1OC"
> 100 µM

Output measured TGI for this item: "c1ccc(C(c2ccccc2)c2ccccn2)cc1"
> 100 µM

Output measured TGI for this item: "CCOC(=O)/C(=C/c1ccccn1)C(=O)c1ccccc1"
33 µM

Output measured TGI for this item: CC(=O)NC1C(OCC(=O)NCCNc2ccc([N+](=O)[O-])c3[nH]c4ccccc4c(=O)c23)C(O)C(CO)OC1(C)OCc1ccccc1 (stereo unspecified)
> 100 µM

Output measured TGI for this item: "CCCCCC/C=C\CCCCCCCCC(=O)c1cccc(OC)c1OC"
> 100 µM

Output measured TGI for this item: "O=C(c1ccccc1)C1(Br)S(=O)(=O)OCCOS1(=O)=O"
> 100 µM

Output measured TGI for this item: O=C1CC(c2cccc(Cl)c2)Nc2ccc(N3CCCC3)cc21 (stereo unspecified)
> 100 µM

Output measured TGI for this item: CC(=O)Nc1ccc(C2CC(c3ccc([N+](=O)[O-])cc3)=Nc3ccccc3S2=O)cc1 (stereo unspecified)
49.8 µM

Output measured TGI for this item: "OCCCCC#Cc1ccccc1C#Cc1cccc(C(F)(F)F)c1"
33.3 µM

Output measured TGI for this item: "CN(NC1=NCCO1)c1ccc2ccccc2c1"
> 100 µM

Output measured TGI for this item: "Cc1ccc(N=N/C(=N/NC(=O)c2ccccc2)c2ccc(N(CCC#N)CCC#N)cc2C)cc1"
> 100 µM

###

# System: SNB-19 CNS
# assay procedure: NCI tumour cell line growth inhibition, 48 h; in the data active = GI50 below about 0.43 µM; inactive = the rest
Choose the fitting class; nothing outside active, inactive is accepted.

Here are 3 compounds together with their reported answers.
1) COc1ccc(Nc2cnc3cc(N)cc(N)c3n2)cc1 :: inactive
2) CCCCCC(=O)O[C@]1(C(C)=O)CCC2C3CCC4=CC(=O)CC[C@]4(C)C3CC[C@@]21C (some centres not stated) :: inactive
3) CN1CCN(c2c(F)cc(NC3=C(Cl)C(=O)c4ncccc4C3=O)cc2F)CC1 :: inactive

Which outcome did this test record for the compound "COc1cc(-c2nccc3[nH]c(-c4ccc5cc[nH]c5c4)nc23)cc(OC)c1OC" ?
active

Which outcome did this test record for the compound "Nc1nccc(-c2c(-c3ccc(F)cc3)nn3cc(C(F)(F)F)ccc23)n1" ?
inactive

Which outcome did this test record for the compound "COc1ccc(/C=C2\CCC/C(=C\c3ccc(OC)c(OC)c3)C2=O)cc1OC" ?
inactive

Which outcome did this test record for the compound "CC(=O)Oc1c(C(=O)[O-])cc(C(C)C)cc1C(C)C.CC(=O)Oc1c(C(=O)[O-])cc(C(C)C)cc1C(C)C.CC(=O)Oc1c(C(=O)[O-])cc(C(C)C)cc1C(C)C.CC(=O)Oc1c(C(=O)[O-])cc(C(C)C)cc1C(C)C.[Cu+2].[Cu+2]" ?
inactive

Which outcome did this test record for the compound "CCCCCCCCCCCCCCNC(=O)Nc1ccc(Cl)c(Cl)c1" ?
inactive

###

# System: U251 CNS
# assay procedure: NCI tumour cell line growth inhibition, 48 h
reported metric: TGI

As a guide, the following entries are already answered.
1) COc1ccc2ccccc2c1C1=NC(C)(C)CO1 :: > 100 µM
2) COc1cc([C@@H]2c3cc4c(cc3[C@@H](Nc3ccc(NC(=O)c5cc([N+](=O)[O-])cn5C)cc3)[C@H]3COC(=O)[C@H]23)OCO4)cc(OC)c1O :: > 57.5 µM
3) O=c1[nH]c(N/N=C\C(O)C(O)C(O)C(O)CO)nc2ccccc12 (stereo not drawn) :: > 100 µM

Output measured TGI for this item: "Cc1c(C)c(S(=O)(=O)N(CCCCN)OCCCN)c(C)c2c1OC(C)(C)CC2"
> 100 µM

Output measured TGI for this item: "COCCOC1=C(Cl)C(=O)c2ccccc2C1=O"
10 µM

Output measured TGI for this item: "C=C(C#N)C(=O)OCC(CC)CC.C=C(C#N)C(=O)OCC(CC)CC.CS(C)=O.CS(C)=O.Nc1c(N=Nc2ccc(-c3ccc(N=Nc4cc(S(=O)(=O)[O-])c5ccccc5c4N)cc3)cc2)cc(S(=O)(=O)[O-])c2ccccc12.[Pt+2]"
> 100 µM

Output measured TGI for this item: "COc1ccc(OC)c2sc(N3C(=O)/C(=C/c4cccc(Oc5ccccc5)c4)N=C3c3ccccc3)nc12"
> 100 µM

Output measured TGI for this item: "CCOC(=O)C1=C(NC)OCC1=O"
> 100 µM

###

Reported TGI values for a set of molecules
# Tested on: MOLT-4 leukemia
# assay procedure: NCI tumour cell line growth inhibition, 48 h

As a guide, the following entries are already answered.
1. Cc1cc(N(CCC#N)CCC#N)ccc1/C(N=Nc1ccccc1)=N\NC(=O)c1cc(Cl)ccc1O :: 92.6 µM
2. CCCCCC(=O)O[C@]1(C(C)=O)CCC2C3CCC4=CC(=O)CC[C@]4(C)C3CC[C@@]21C (stereo partly specified) :: 5.17 µM
3. [O]=[V]([OH])([OH])[OH] :: > 100 µM
4. O=C(c1ccccc1)C1(Br)S(=O)(=O)OCCOS1(=O)=O :: > 100 µM
5. C1CCC(N=C2N(C3CCCCC3)C(=NC3CCCCC3)N2C2CCCCC2)CC1 :: > 100 µM

Enter recorded TGI with MOLT-4 leukemia for "COc1ccc(/C(Nc2ccccc2)=C(\CCl)c2ccccc2)cc1OC" here.
> 100 µM

Enter recorded TGI with MOLT-4 leukemia for "CCCCCCCCCCCCCCNC(=O)Nc1ccc(Cl)c(Cl)c1" here.
> 25.1 µM

Enter recorded TGI with MOLT-4 leukemia for COC12C(COC(=O)NCCO)C3=C(C(=O)C(C)=C(N)C3=O)N1CC1NC12 (stereo unspecified) here.
> 264 µM

Enter recorded TGI with MOLT-4 leukemia for "NNC(=O)C(=O)NN=C(C(Cl)(Cl)CO)C(Cl)(Cl)CO" here.
50.7 µM

Enter recorded TGI with MOLT-4 leukemia for "O=C(CSCC(=O)N/N=C/c1cccc(O)c1)N/N=C/c1cccc(O)c1" here.
> 100 µM

Enter recorded TGI with MOLT-4 leukemia for CC(N)(CC(O)(C(F)(F)Cl)C(F)(F)Cl)C(=O)O (stereo unspecified) here.
> 10 µM

###

Reported GI50 values for a set of compounds
# Test system: SK-MEL-2 melanoma
# assay procedure: NCI tumour cell line growth inhibition, 48 h

As a guide, the following entries are already answered.
1. N#CC(C#N)=C/C=C(\Sc1ccc(Cl)cc1)c1ccc(F)cc1 :: 4.15 µM
2. O=C(O)CN(CCN(CC(=O)O)CC(=O)O)CC(=O)O.[Mn+2] :: > 100 µM
3. S=C1SCN(Cc2ccccc2)CN1Cc1ccco1 :: 3.04 µM

Output measured GI50 for this item: "COc1cc(/C=C/c2cc(/C=C/c3ccc(O)c(OC)c3)n(C(=O)c3ccccc3Br)n2)ccc1O"
2.37 µM

Output measured GI50 for this item: CCCCCC(=O)O[C@]1(C(C)=O)CCC2C3CCC4=CC(=O)CC[C@]4(C)C3CC[C@@]21C (stereo partly specified)
2.87 µM

Output measured GI50 for this item: "COc1ccc(-c2[nH]c3ccc(OC)cc3c2C=C(C#N)C#N)cc1"
5.85 µM
